Molecular target: T1, human TIGIT on Jurkat cells (TIGIT/NFAT reporter Jurkat cells, BPS Bioscience #60538); Promega TIGIT Effector … (human, UniProt Q495A1 22-244)
T1 construct: whole, on cells; Same protein on two bought Jurkat lines (flow cytometry: BPS; bioassay: Promega); also called hu TIGIT cells; cells expressing human TIGIT
T1 sequence (looked up): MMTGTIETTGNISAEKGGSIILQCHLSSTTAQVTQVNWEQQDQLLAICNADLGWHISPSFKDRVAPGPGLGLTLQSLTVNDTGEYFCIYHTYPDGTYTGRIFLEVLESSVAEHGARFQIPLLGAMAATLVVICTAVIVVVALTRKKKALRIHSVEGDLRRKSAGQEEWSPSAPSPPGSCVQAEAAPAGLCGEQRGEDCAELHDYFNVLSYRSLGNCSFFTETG
Experiment: flow cytometry, TIGIT/NFAT Jurkat cells, 10 ug/ml
RECORDED_ENDPOINT: MFI
Returns: string containing the number followed by the unit.

Worked cases, MFI given:
BINDER	MFI
43586p2.H02 (scFv, V domains shown) VH: EVQLLESGGGLVQPGGSLRLSCATSGFTVSDHYVSWVRQAPGKGLEWVSTSSSTNWNDGRTYYADSVKGRFTISRDNSENTLYLQMNSLRAEDTAVYYCAKGSYGMDVWGQGTTVTVSS VL: QSVLTQPPSASGTPGQRVTISCSASNSYIGTKYFYWYQQLPGTAPKLLIYLDSQRPSGVPDRFSGSKSGTSVSLAISGLQSEDEADYYCAFWDDHLHGWVFGGGTKLTVL	9130 MFI
43586p2.G10 (scFv, V domains shown) VH: EVQLLESGGGLVQPGGSLRLSCAASGFTFDDYVMSWVRQAPGKGLEWVSLINWSGGTTYYADSVKGRFTISRDNSKNTLYLQMNSLRAEDTAVYYCAKHWIVYQYGMDVWGQGTTVTVSS VL: QSVLTQPSSASGTPGQRVTISCSGTISNIETKYVSWYKYVSWYQQLPGTAPKLLIYNNVQRPSGVPDRFSGSQSGTSASLAISGLQSEDEAHYYCASWEGGLNSWVFGGGTKLTVL	9400 MFI
43586p1.1.A7 (scFv, V domains shown) VH: EVQLLESGGGLVQPGGSLRLSCAASGFTFTSYAMSWVRQAPGKGLEWVAGISYDGSIQYYADSVKGRLTISRDNSKNTLNLQMNSLRAGDTAVYYCAKHLTGGTTDYYYYGMDVWGQGTTVTVSS VL: QSVMTQPPSASGTPGQRVTISCSGSSSNIGTNRYVHWYKQVPGTAPKLLIYGNHQRPSGVPDRFSGSKSGTSASLAISGLQSEDEADYYCAAWDGSLSGWVFGGGTKLTVL	9000 MFI
43645p1.C9 (scFv, V domains shown) VH: EVQLLESGGGLVQPGGSLRLSCAASGFTFSDFWMSWVRQAPGKGLEWVSSIINIQTYDYATYYADSVKGRFTISRDNSKNTLYLQMNSLRAEDTAIYYCAKDVAPGLPGGMDVWGQGTTVTVSS VL: QSVLTQPPSASGTPGQRVTISCSGSNSNIRNNFVSWYQHLPGTAPKLLIYGNSQRPSGVPDRFSGSKSGTSASLAISGLQSEDEADYYCTSWDFSVSGWVFGGGTKLTVL	16500 MFI

Please look at the following binder next.
Query :: Consider the binder 43586p2.F11 (scFv, V domains shown) VH: EVQLLELGGSLVQPGGSLRLSCAASGFTFDDYVMSWVRQAPGKGLEWVSLINWNGDKTYYADSVKGRFTISRDNSKNTLYLQMNSLRAEDTAVYYCARHWIVFQYGLDVWGQGTTVTVSS VL: QSVLTQPLSASGTPGQKVTISCSGVSSNIEIKYVSWYQQLPGTAPKLLIYNSHQRPSGVPDRFSGSKSGTSASLAISGLQSEDEADYYCTSWDDRLKSWVFGGGTKLTVL and give its measured MFI.
Result :: 9200 MFI

Data origin, for the record: patent US20230265187A1
